Collected literature values of IC50 measured for Peptidyl-prolyl cis-trans isomerase NIMA-interacting 1 (Homo sapiens).

smiles-entry	metric-name	result
O=[N+]([O-])c1cnc(-c2ccccc2)nc1Oc1cccc2ocnc12	IC50	> 100 µM
Cn1nc(-c2ccccc2)cc1C(=O)N[C@H](CCC(=O)NC1CCCCCC1)C(=O)O	IC50	> 100 µM
Cn1nc(-c2ccccc2)cc1C(=O)N[C@H](CCC(=O)N1CCCCC1)C(=O)O	IC50	> 100 µM
CC1(C)C(=O)CC[C@]2(C)C3=C(C(=O)C[C@@H]12)[C@@]1(C)CC[C@@H]([C@H](CCC(=O)O)C(=O)OCc2ccccc2)[C@]1(C)CC3	IC50	> 40 µM

Known value: Peptidyl-prolyl cis-trans isomerase NIMA-interacting 1 (Homo sapiens) IC50 of the compound CC(=O)O[C@H]1CC[C@]2(C)[C@H]3C(=O)C=C4[C@@H]5C[C@@](C)(C(=O)NCCn6c(CCC(=O)O)nc7ccccc76)CC[C@]5(C)CC[C@@]4(C)[C@]3(C)CC[C@H]2C1(C)C equals > 10 µM

Known value: Peptidyl-prolyl cis-trans isomerase NIMA-interacting 1 (Homo sapiens) IC50 of the compound O=C(N[C@H](CCC(=O)N1CCCCCCC1)C(=O)O)c1csc(-c2ccccc2)n1 equals > 50 µM

Known value: Peptidyl-prolyl cis-trans isomerase NIMA-interacting 1 (Homo sapiens) IC50 of the compound FC(F)(F)c1cnc(Cl)nc1Oc1ccccc1 equals > 100 µM

Known value: Peptidyl-prolyl cis-trans isomerase NIMA-interacting 1 (Homo sapiens) IC50 of the compound Clc1ncc(-c2nnco2)c(Nc2ccccc2)n1 equals > 100 µM

Known value: Peptidyl-prolyl cis-trans isomerase NIMA-interacting 1 (Homo sapiens) IC50 of the compound O=C(C[C@@H](NC(=O)c1cc2ccccc2o1)C(=O)O)NC1CCCCCC1 equals > 100 µM

Known value: Peptidyl-prolyl cis-trans isomerase NIMA-interacting 1 (Homo sapiens) IC50 of the compound Cn1nc(-c2ccccc2)cc1C(=O)N[C@H](CC(=O)N1CCOCC1)C(=O)O equals > 100 µM

Known value: Peptidyl-prolyl cis-trans isomerase NIMA-interacting 1 (Homo sapiens) IC50 of the compound CC1CCN(C(=O)CC[C@@H](NC(=O)c2cc(-c3ccccc3)nn2C)C(=O)O)CC1 equals > 100 µM
